This section lists EC50 readings for 5-hydroxytryptamine receptor 1A (Homo sapiens, UniProt P08908).

testSmiles | testSystem | unitAnnotation | boundSign | EC50
Nc1c2c(nc3cccc(N4CCN(CCCCc5c[nH]c6ccc(Br)cc56)CC4)c13)CCCC2 | 5-hydroxytryptamine receptor 1A (Homo sapiens, UniProt P08908) | nM | = | 0.35
COC(=O)c1ccc2[nH]cc(CCCCN3CCN(c4cccc5nc6c(c(N)c45)CCCC6)CC3)c2c1 | 5-hydroxytryptamine receptor 1A (Homo sapiens, UniProt P08908) | nM | < | 0.14
N#Cc1ccc2[nH]cc(C(=O)CCCN3CCN(c4cccc5c(N)c6c(nc45)CCCC6)CC3)c2c1 | 5-hydroxytryptamine receptor 1A (Homo sapiens, UniProt P08908) | nM | = | 35
N#Cc1ccc2[nH]cc(CCCCN3CCN(c4ccc5c(N)c6c(nc5c4)CCCC6)CC3)c2c1 | 5-hydroxytryptamine receptor 1A (Homo sapiens, UniProt P08908) | nM | = | 28.8
COc1ccc2[nH]cc(CCCCN3CCN(c4cccc5nc6c(c(N)c45)CCCC6)CC3)c2c1 | 5-hydroxytryptamine receptor 1A (Homo sapiens, UniProt P08908) | nM | < | 0.14
CC(=O)Nc1c2c(nc3cccc(N4CCN(CCCCc5c[nH]c6ccc(C#N)cc56)CC4)c13)CCCC2 | 5-hydroxytryptamine receptor 1A (Homo sapiens, UniProt P08908) | nM | = | 93.4
N#Cc1ccc2[nH]cc(CCCCN3CCN(c4cccc5nc6c(c(N)c45)CCC6)CC3)c2c1 | 5-hydroxytryptamine receptor 1A (Homo sapiens, UniProt P08908) | nM | = | 0.58
N#Cc1ccc2[nH]cc(CCN3CCN(c4cccc5nc6c(c(N)c45)CCCC6)CC3)c2c1 | 5-hydroxytryptamine receptor 1A (Homo sapiens, UniProt P08908) | nM | > | 10000
N#Cc1ccc2[nH]cc(C(=O)CCCN3CCN(c4ccc5nc6c(c(N)c5c4)CCCC6)CC3)c2c1 | 5-hydroxytryptamine receptor 1A (Homo sapiens, UniProt P08908) | nM | = | 1560
N#Cc1ccc2[nH]cc(CCCCN3CCN(c4ccc5nc6c(c(N)c5c4)CCCC6)CC3)c2c1 | 5-hydroxytryptamine receptor 1A (Homo sapiens, UniProt P08908) | nM | = | 14.9
N#Cc1ccc2[nH]cc(C(=O)CCCN3CCN(c4ccc5c(N)c6c(nc5c4)CCCC6)CC3)c2c1 | 5-hydroxytryptamine receptor 1A (Homo sapiens, UniProt P08908) | nM | = | 567

---

- testSystem: Acetylcholinesterase (Rattus norvegicus, UniProt P37136)
- Sequence (P37136 whole entry): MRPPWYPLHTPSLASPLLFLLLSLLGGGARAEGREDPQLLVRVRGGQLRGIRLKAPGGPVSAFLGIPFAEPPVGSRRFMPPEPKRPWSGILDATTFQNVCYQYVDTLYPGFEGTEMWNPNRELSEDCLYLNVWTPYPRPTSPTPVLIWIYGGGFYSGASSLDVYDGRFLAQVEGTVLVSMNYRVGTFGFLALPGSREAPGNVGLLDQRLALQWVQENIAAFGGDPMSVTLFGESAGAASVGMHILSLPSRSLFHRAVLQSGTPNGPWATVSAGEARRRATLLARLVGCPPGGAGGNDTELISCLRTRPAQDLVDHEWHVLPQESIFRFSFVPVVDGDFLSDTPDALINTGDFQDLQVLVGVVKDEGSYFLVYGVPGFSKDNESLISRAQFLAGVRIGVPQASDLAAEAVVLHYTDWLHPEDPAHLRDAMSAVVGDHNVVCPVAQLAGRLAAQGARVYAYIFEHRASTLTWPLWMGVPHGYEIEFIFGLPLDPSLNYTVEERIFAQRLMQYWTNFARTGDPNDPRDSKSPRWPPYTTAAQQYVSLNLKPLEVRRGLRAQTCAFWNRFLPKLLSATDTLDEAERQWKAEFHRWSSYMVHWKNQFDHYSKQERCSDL
- measurementNotes: Inhibition of rat cortex AChE using acetylthiocholine iodide as substrate after 20 mins by Ellman's method
- conditions: read-out: IC50

testSmiles | testSystem | IC50 [nM]
N#Cc1ccc2[nH]cc(C(=O)CCCN3CCN(c4cccc5c(N)c6c(nc45)CCCC6)CC3)c2c1 | Acetylcholinesterase (Rattus norvegicus, UniProt P37136) | 3310
N#Cc1ccc2[nH]cc(CCN3CCN(c4cccc5nc6c(c(N)c45)CCCC6)CC3)c2c1 | Acetylcholinesterase (Rattus norvegicus, UniProt P37136) | 2100
N#Cc1ccc2[nH]cc(CCCCN3CCN(c4cccc5nc6c(c(N)c45)CCCC6)CC3)c2c1 | Acetylcholinesterase (Rattus norvegicus, UniProt P37136) | 1720
N#Cc1ccc2[nH]cc(CCCCN3CCN(c4cccc5nc6c(c(N)c45)CCCCC6)CC3)c2c1 | Acetylcholinesterase (Rattus norvegicus, UniProt P37136) | 18300

---

- measurementNotes: in vitro
- conditions: PAMPA
- Description: Effective permeability of the compound in PBS/ethanol buffer after 12 hrs by PAMPA

testSmiles | Papp at 12 h
N#Cc1ccc2[nH]cc(CCCCN3CCN(c4ccc5c(N)c6c(nc5c4)CCCC6)CC3)c2c1 | 2.99 ×10⁻⁶ cm/s
N#Cc1ccc2[nH]cc(C(=O)CCCN3CCN(c4ccc5nc6c(c(N)c5c4)CCCC6)CC3)c2c1 | 1.04 ×10⁻⁶ cm/s
N#Cc1ccc2[nH]cc(CCCCN3CCN(c4cccc5c(N)c6c(nc45)CCCC6)CC3)c2c1 | 4.43 ×10⁻⁶ cm/s
N#Cc1ccc2[nH]cc(CCCCN3CCN(c4cccc5nc6c(c(N)c45)CCCC6)CC3)c2c1 | 5.11 ×10⁻⁶ cm/s
Cc1ccc2[nH]cc(CCCCN3CCN(c4cccc5nc6c(c(N)c45)CCCC6)CC3)c2c1 | 3.64 ×10⁻⁶ cm/s
CC(=O)Nc1c2c(nc3cccc(N4CCN(CCCCc5c[nH]c6ccc(C#N)cc56)CC4)c13)CCCC2 | 1.92 ×10⁻⁶ cm/s
Nc1c2c(nc3cccc(N4CCN(CCCCc5c[nH]c6ccc(Br)cc56)CC4)c13)CCCC2 | 3.05 ×10⁻⁶ cm/s
N#Cc1ccc2[nH]cc(C(=O)CCCN3CCN(c4ccc5c(N)c6c(nc5c4)CCCC6)CC3)c2c1 | 1.68 ×10⁻⁶ cm/s

---

pEC50 values by entry
- testSystem: UniProt P08908
pEC50: −log10 of the molar value.
readoutLabel: pEC50

testSmiles | testSystem | valueObserved
Nc1c2c(nc3cccc(N4CCN(CCCCc5c[nH]c6ccccc56)CC4)c13)CCCC2 | UniProt P08908 | 8.92
N#Cc1ccc2[nH]cc(C(=O)CCCN3CCN(c4cccc5nc6c(c(N)c45)CCCC6)CC3)c2c1 | UniProt P08908 | 7.20
Cc1ccc2[nH]cc(CCCCN3CCN(c4cccc5nc6c(c(N)c45)CCCC6)CC3)c2c1 | UniProt P08908 | 9.22
Nc1c2c(nc3cccc(N4CCN(CCCCc5c[nH]c6ccc(F)cc56)CC4)c13)CCCC2 | UniProt P08908 | 9.14
N#Cc1ccc2[nH]cc(CCCCN3CCN(c4cccc5nc6c(c(N)c45)CCCC6)CC3)c2c1 | UniProt P08908 | 9.44
